# experimentDescription: Selectivity ratio of IC50 for JAK1 over IC50 for JAK2
Hi! Just check whether Ratio IC50 is below 6. Below gives Y, equal or above gives N.

O=C(Cc1ccccc1)N1CCN(c2nc(Nc3ccccn3)c3cccn3n2)CC1; N

// switching to the query compound
**Query** Find out if reported Ratio IC50 for Cc1cc(Nc2nc(N3CCN(C(=O)Cc4ccc(F)cc4)CC3)nn3cccc23)n[nH]1 is less than 6
**Result** N

###

# experimentDescription: Selectivity ratio of IC50 for JAK3 over IC50 for JAK2
Readings of Ratio IC50 for the listed molecules
Hey, just send me the number, nothing else.

Cc1cc(Nc2nc(N3CCNCC3)nn3cccc23)n[nH]1; 15
Cc1cc(Nc2nc(N3CCN(C(=O)Cc4ccc(F)cc4)CC3)nn3cccc23)n[nH]1; 25
CCC(=O)N1CCN(c2nc(Nc3cc(C)[nH]n3)c3cccn3n2)CC1; 5
Cc1nnc(Nc2nc(N3CCN(C(=O)Cc4ccccc4)CC3)nn3cccc23)s1; 1.3

// next item, Ratio IC50 requested
**Query** What Ratio IC50 value was documented for this molecule, O=C(Cc1ccccc1)N1CCN(c2nc(Nc3nccs3)c3cccn3n2)CC1 ?
**Result** 37

###

# experimentDescription: Selectivity ratio of IC50 for JAK3 over IC50 for JAK2
assayReadout: Ratio IC50
# respond with the number and nothing more

Some entries whose results are on file:
Cc1cc(Nc2nc(N3CCN(C(=O)N(C)C)CC3)nn3cccc23)n[nH]1; 11
Cc1cc(Nc2nc(N3CCN(C(=O)Cc4c(F)cc(Cl)cc4F)CC3)nn3cccc23)n[nH]1; 67

**Query** Record request: Ratio IC50 value, item O=C(Cc1ccccc1)N1CCN(c2nc(Nc3ccccn3)c3cccn3n2)CC1
**Result** 41

###

Tyrosine-protein kinase JAK2 (Homo sapiens, UniProt O60674) IC50 data
Sequence (O60674 whole entry): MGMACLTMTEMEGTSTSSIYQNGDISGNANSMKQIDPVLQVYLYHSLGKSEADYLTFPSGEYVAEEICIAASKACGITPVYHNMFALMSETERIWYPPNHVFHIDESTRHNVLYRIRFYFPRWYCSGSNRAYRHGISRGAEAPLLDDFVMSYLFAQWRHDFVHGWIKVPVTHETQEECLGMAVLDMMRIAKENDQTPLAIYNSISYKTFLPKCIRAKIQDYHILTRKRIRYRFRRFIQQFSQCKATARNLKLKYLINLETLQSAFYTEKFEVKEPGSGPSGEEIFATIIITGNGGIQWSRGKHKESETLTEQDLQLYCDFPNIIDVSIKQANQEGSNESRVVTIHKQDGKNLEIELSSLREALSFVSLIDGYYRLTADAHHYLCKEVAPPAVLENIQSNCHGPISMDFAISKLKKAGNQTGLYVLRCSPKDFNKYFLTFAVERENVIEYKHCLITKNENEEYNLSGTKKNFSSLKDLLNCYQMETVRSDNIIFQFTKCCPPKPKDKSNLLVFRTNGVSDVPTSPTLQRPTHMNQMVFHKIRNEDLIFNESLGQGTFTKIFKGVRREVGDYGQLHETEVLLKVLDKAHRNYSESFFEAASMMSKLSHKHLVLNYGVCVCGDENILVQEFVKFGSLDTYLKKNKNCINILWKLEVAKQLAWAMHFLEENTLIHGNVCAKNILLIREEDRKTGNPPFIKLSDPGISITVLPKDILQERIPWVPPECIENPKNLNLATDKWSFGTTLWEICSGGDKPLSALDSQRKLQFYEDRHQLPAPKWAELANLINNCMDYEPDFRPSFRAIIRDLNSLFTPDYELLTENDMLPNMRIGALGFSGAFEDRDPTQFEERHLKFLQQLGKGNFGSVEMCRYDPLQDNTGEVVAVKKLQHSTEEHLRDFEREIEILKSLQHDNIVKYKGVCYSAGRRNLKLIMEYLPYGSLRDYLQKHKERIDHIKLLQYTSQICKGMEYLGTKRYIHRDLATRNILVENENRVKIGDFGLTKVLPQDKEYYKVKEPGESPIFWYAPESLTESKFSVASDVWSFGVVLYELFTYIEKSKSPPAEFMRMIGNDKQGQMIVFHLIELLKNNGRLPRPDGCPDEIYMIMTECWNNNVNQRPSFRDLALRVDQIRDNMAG

A selection of reference data follows.
Cc1ccc(CC(=O)N2CCN(c3nc(Nc4cc(C)[nH]n4)c4cccn4n3)CC2)cc1; 1.1 nM
CCC(=O)N1CCN(c2nc(Nc3cc(C)[nH]n3)c3cccn3n2)CC1; 22 nM
Cc1cc(Nc2nc(N3CCN(C(=O)Cc4ccccc4C)CC3)nn3cccc23)n[nH]1; 5.3 nM
Cc1cc(Nc2nc(N3CCN(C(=O)c4ccccc4Cl)CC3)nn3cccc23)n[nH]1; 7.3 nM
CC1(c2cc(Nc3nc(N4CCN(C(=O)Cc5ccccc5)CC4)nn4cccc34)n[nH]2)CC1; 22 nM

Proceed to the following item.
**Query** Request the reported IC50 associated with Cc1cc(Nc2nc(N3CCN(C(=O)c4ccccc4S(C)(=O)=O)CC3)nn3cccc23)n[nH]1
**Result** 1.1 nM

###

# systemUnderTest: Tyrosine-protein kinase JAK2 (Homo sapiens, UniProt O60674)
Reported pIC50 by item:
Recall that pIC50 is obtained by taking minus log10 of the concentration measured in molar.

Observe how each entry below is paired with its result.
CC(C)n1cnc(Nc2nc(N3CCN(C(=O)Cc4ccccc4)CC3)nn3cccc23)c1; 6.96
O=C(Cc1ccccc1)N1CCN(c2nc(Nc3ccccn3)c3cccn3n2)CC1; 6.72
Cc1cc(Nc2nc(N3CCN(C(=O)Cc4ccc(F)cc4)CC3)nn3cccc23)n[nH]1; 9.05
COc1ccc(CC(=O)N2CCN(c3nc(Nc4cc(C)[nH]n4)c4cccn4n3)CC2)cc1; 8.92

Continue with the compound presented below.
**Query** Fill in: pIC50 of Cc1cc(Nc2nc(N3CCN(C(=O)CCc4ccccc4)CC3)nn3cccc23)n[nH]1 is ___
**Result** 8.70

Attribution: ChEMBL document CHEMBL1681645
